assayTarget: T1, human IL-11 (human, UniProt P20809 22-199)
T1 sequence: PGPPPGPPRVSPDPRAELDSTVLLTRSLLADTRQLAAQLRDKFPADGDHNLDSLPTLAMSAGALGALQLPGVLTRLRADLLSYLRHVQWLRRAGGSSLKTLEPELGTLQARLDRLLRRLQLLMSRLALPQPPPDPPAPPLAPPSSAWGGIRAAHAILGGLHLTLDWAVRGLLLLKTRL
assayMethodText: cell-based or functional assay
measuredMetric: RGA Efficacy (%)
Please state the figure in %; there is no need to write the unit.

# example entries with known answers
Given the entry TPP-26315 (antibody, V domains shown) VH: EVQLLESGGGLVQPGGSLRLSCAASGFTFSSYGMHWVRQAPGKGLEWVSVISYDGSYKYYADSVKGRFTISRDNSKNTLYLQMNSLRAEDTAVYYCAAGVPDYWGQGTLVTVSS VL: QSVLTQPPSASGTPGQRVTISCTGSSSNIGAHYDVHWYQQLPGTAPKLLIYSNNERPSGVPDRFSGSKSGTSASLAISGLRSEDEADYYCAAWDDSLNGPVFGGGTKLTVL , report its measured RGA Efficacy (%). 68.3

# iterate: TPP-26323 (antibody, V domains shown) VH: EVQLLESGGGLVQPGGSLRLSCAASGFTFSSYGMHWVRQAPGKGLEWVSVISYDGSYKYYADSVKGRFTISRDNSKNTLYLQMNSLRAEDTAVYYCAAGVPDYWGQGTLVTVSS VL: QSVLTQPPSASGTPGQRVTISCTGSSSNIGAGYDVHWYQQLPGTAPKLLIYSNNERPSGVPDRFSGSKSGTSASLAISGLRSEDEADYYCAAWDGSLNGPVFGGGTKLTVL 57.6

Others:
Given the entry TPP-26324 (antibody, V domains shown) VH: EVQLLESGGGLVQPGGSLRLSCAASGFTFSSYGMHWVRQAPGKGLEWVSVISYDGSYKYYRDSVKGRFTISRDNSKNTLYLQMNSLRAEDTAVYYCAAGVPDYWGQGTLVTVSS VL: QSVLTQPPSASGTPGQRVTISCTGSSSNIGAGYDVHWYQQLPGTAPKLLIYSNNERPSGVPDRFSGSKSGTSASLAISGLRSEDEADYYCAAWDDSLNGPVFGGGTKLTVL , report its measured RGA Efficacy (%). 59

# iterate: TPP-26299 (antibody, V domains shown) VH: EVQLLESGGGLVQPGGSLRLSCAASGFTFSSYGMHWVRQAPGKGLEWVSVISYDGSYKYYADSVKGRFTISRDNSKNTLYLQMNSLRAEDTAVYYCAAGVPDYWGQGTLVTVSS VL: QSVLTQPPSASGTPGQRVTISCTGSSSNIGAGYDVHWYQQLPGTAPKLLIYSNNERPSGVPDRFSGSKSGTSASLAISGLRSEDEADYYCAAWDDSLYGPVFGGGTKLTVL 70.1

# iterate: TPP-26333 (antibody, V domains shown) VH: EVQLLESGGGLVQPGGSLRLSCAASGFTFSSYGFHWVRQAPGKGLEWVSVISYDGSYKYYADSVKGRFTISRDNSKNTLYLQMNSLRAEDTAVYYCAAGVPDYWGQGTLVTVSS VL: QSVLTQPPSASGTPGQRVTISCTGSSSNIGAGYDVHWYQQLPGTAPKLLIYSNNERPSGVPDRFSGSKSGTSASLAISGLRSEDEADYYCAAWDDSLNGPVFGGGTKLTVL 64.7

# iterate: TPP-26303 (antibody, V domains shown) VH: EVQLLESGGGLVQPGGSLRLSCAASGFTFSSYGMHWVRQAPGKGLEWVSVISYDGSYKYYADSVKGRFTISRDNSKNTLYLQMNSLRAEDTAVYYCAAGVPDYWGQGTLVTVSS VL: QSVLTQPPSASGTPGQRVTISCTGSSSNIGAGYDVHWYQQLPGTAPKLLIYSNNERPEGVPDRFSGSKSGTSASLAISGLRSEDEADYYCAAWDDSLNGPVFGGGTKLTVL 70.2

# iterate: TPP-26317 (antibody, V domains shown) VH: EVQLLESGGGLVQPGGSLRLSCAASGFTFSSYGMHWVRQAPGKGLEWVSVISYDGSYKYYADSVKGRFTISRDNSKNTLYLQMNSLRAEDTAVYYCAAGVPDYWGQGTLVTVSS VL: QSVLTQPPSASGTPGQRVTISCTGSSSNIGAEYDVHWYQQLPGTAPKLLIYSNNERPSGVPDRFSGSKSGTSASLAISGLRSEDEADYYCAAWDDSLNGPVFGGGTKLTVL 69.9
